Exercise: state measured IC50 for each of the molecules provided.
# Target system: human 11β-HSD1 (Homo sapiens, UniProt P28845)
# Sequence (P28845 whole entry, species assumed): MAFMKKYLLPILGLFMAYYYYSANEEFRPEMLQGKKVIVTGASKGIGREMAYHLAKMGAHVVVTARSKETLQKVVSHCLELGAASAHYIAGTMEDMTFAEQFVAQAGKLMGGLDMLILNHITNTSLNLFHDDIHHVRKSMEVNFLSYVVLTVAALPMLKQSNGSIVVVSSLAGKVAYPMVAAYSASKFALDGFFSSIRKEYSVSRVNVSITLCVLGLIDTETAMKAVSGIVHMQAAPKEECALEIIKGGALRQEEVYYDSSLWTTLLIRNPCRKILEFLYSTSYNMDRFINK
# Assay text: Scintillation Proximity Assay: inhibition of purified 11β-HSD1 (Biological Test Example 1)
# Assay type: biochemical
# Parameters: made in house; host or cells: E. coli
# Run parameters: purified recombinant 11β-HSD1, SPA; read-out: Biological Test Example 1 (IC50 class)

Entry CC(C)(C)OC(=O)N1CCC2(CCN(C(=O)NC3C4CC5CC(C4)CC3C5)CC2)C1 (stereo not shown) ; IC50 = 50 to 1000 nM

Entry O=C(O)CC1CC2(CCN(C(=O)OC3C4CC5CC(C4)CC3C5)CC2)c2ccccc21 (stereo not shown) ; IC50 = < 50 nM

Entry O=C(NC1C2CC3CC(C2)CC1C3)N1CCC2(CC1)CNc1ccccc12 (stereo not shown) ; IC50 = < 50 nM

Entry O=C(OC1C2CC3CC(C2)CC1C3)N1CCC2(CC1)CNc1ccc(F)cc12 (stereo not shown) ; IC50 = < 50 nM

* * *

# Target system: UniProtKB P28845
# Assay text: Scintillation Proximity Assay: inhibition of purified 11β-HSD1 (Biological Test Example 1)
# Assay type: biochemical
# Parameters: made in house; host or cells: E. coli
# Run parameters: purified recombinant 11β-HSD1, SPA; read-out: Biological Test Example 1 (IC50 class)
pIC50: −log10 of the molar value.
Exercise: state measured pIC50 for each of the compounds provided.

Entry CC(C)(C)OC(=O)N1CC2(CCN(C(=O)OC3C4CC5CC(C4)CC3C5)CC2)c2ccccc21 (centres unmarked) [Example 128] ; pIC50 = 6.00 to 7.30

Entry O=C(O)CCCC(=O)N1Cc2ccccc2C2(CCN(C(=O)NC3C4CC5CC(C4)CC3C5)CC2)C1 (centres unmarked) [Example 95] ; pIC50 = 6.00 to 7.30

Entry CC(C)(C)OC(=O)N1CC2(CCN(C(=O)OC3C4CC5CC(C4)CC3C5)CC2)c2cc(F)ccc21 (centres unmarked) [Example 129] ; pIC50 = 6.00 to 7.30

Entry CC(=O)N1CC2(CCN(C(=O)OC3C4CC5CC(C4)CC3C5)CC2)c2ccccc21 (centres unmarked) [Example 23] ; pIC50 = > 7.30

Entry CC(=O)N1CC2(CCN(C(=O)NC3C4CC5CC(C4)CC3C5)CC2)c2ccccc21 (centres unmarked) [Example 7] ; pIC50 = > 7.30

Entry CC(=O)N1Cc2ccccc2C2(CCN(C(=O)NC3C4CC5CC(C4)CC3C5)CC2)C1 (centres unmarked) [Example 31] ; pIC50 = > 7.30

Entry COC(=O)CC1CC2(CCN(C(=O)OC3C4CC5CC(C4)CC3C5)CC2)c2ccccc21 (racemic) [Example 24] ; pIC50 = > 7.30

Entry O=C(OC1C2CC3CC(C2)CC1C3)N1CCC2(CC1)CNc1ccccc12 (centres unmarked) [Example 20] ; pIC50 = > 7.30

Entry CNC(=O)CC1CC2(CCN(C(=O)OC3C4CC5CC(C4)CC3C5)CC2)c2ccccc21 (racemic) [Example 26] ; pIC50 = > 7.30

Entry CC(C)(C)OC(=O)N1CC2(CCN(C(=O)NC3C4CC5CC(C4)CC3C5)CC2)c2ccccc21 (centres unmarked) [Example 1] ; pIC50 = > 7.30

Entry CS(=O)(=O)N1CC2(CCN(C(=O)NC3C4CC5CC(C4)CC3C5)CC2)c2ccccc21 (centres unmarked) [Example 19] ; pIC50 = > 7.30
